Tested on: A549
Assay: cells
Details: Homo sapiens, A549, 48 h
Description: Antiproliferative activity against human A549 cells assessed as inhibition of cell growth measured after 48 hrs by MTT assay
measurementKind: pIC50
Answers are plain numbers, as −log10 of the molar value.

// below: answered compounds
Cn1c[n+](C)c2c1C(=O)c1cccc([N+](=O)[O-])c1C2=O	7.40
CCCCn1c2c([n+](C)c1C)C(=O)c1cc3ccccc3cc1C2=O	7.05
Cc1n(CC(C)C)c2c([n+]1C)C(=O)c1cc3ccccc3cc1C2=O	7.22

Take each entry in turn and give its pIC50.
1. Cc1n(Cc2ccc(F)cc2)c2c([n+]1C)C(=O)c1cc3ccccc3cc1C2=O
2. CCCn1c[n+](CCC)c2c1C(=O)c1ccccc1C2=O
3. Cn1c2c([n+](C)c1-c1ccccc1F)C(=O)c1ccccc1C2=O
4. O=C1c2ccccc2C(=O)c2c1n(-c1ccccc1)c[n+]2-c1ccccc1
5. CCCn1c2c([n+](C)c1C)C(=O)c1cc3ccccc3cc1C2=O
6. O=C1c2ccccc2C(=O)c2c1n(Cc1ccccc1)c[n+]2Cc1ccccc1
7. C[n+]1cn(Cc2ccc(F)cc2)c2c1C(=O)c1cc3ccccc3cc1C2=O

Response:
1. 6.19
2. 6.19
3. 6.04
4. 4.12
5. 5.91
6. 6.09
7. 6.15

###

System: A549
Experiment: cells
Conditions: Homo sapiens, A549, 48 h
measurementKind: IC50 (nM)
Give bare numbers, in nM.

// below: answered compounds
C[n+]1cn(Cc2ccccc2)c2c1C(=O)c1cc3ccccc3cc1C2=O	490
CCn1c[n+](CC)c2c1C(=O)c1cc3ccccc3cc1C2=O	260
CCn1c[n+](CC)c2c1C(=O)c1ccccc1C2=O	60
COCC[n+]1c2c(n(Cc3cnccn3)c1C)C(=O)c1cc3ccccc3cc1C2=O	4500
C#CCn1c2c([n+](C)c1C)C(=O)c1cc3ccccc3cc1C2=O	250

Take each entry in turn and give its IC50.
1. Cc1n(CC2OCCO2)c2c([n+]1C)C(=O)c1cc3ccccc3cc1C2=O
2. C[n+]1cn(Cc2cccc(F)c2)c2c1C(=O)c1cc3ccccc3cc1C2=O
3. Cn1c2c([n+](C)c1-c1ccccc1F)C(=O)c1cc3ccccc3cc1C2=O
4. CCn1c2c([n+](C)c1C)C(=O)c1cc3ccccc3cc1C2=O
5. CCn1c[n+](CC)c2c(OC)ccc(OC)c21
6. CC(C)=CCn1c2c([n+](C)c1C)C(=O)c1cc3ccccc3cc1C2=O
7. Cc1n(Cc2ccccc2F)c2c([n+]1C)C(=O)c1cc3ccccc3cc1C2=O

Response:
320
910
850
210
13600
60
460

Take each entry in turn and give its IC50.
1. CCC(C)n1c[n+](C)c2c1C(=O)c1cc3ccccc3cc1C2=O (centres undefined)
2. COCC[n+]1c2c(n(Cc3cnccn3)c1C)C(=O)c1ccccc1C2=O.[Br-] [SEPANTRONIUM BROMIDE]

Response:
1: 5650; 2: 10

Source of measurements: ChEMBL document CHEMBL5375989
